System: S. sanguis
Assay type: biochemical
Settings: strain ATCC 10557; β-naphthylamine liberated after 60 minutes, 37° C.
Peptide text beside a SMILES is read from it. * marks the point of attachment. βNA = c1ccc2cc(N*)ccc2c1

>  <MOLECULE>
CC(C)C[C@H](NC(=O)[C@@H]1CCCN1C(=O)CN)C(=O)Nc1ccc2ccccc2c1 [Gly-Pro-Leu] (H-Gly-Pro-Leu-βNA)

>  <Aminopeptidase activity>
6 nmol

$$$$
>  <MOLECULE>
CC(C)C[C@H](N)C(=O)NCC(=O)O [Leu-Gly, Leucyl-glycine] (H-Leu-Gly-OH)

>  <Aminopeptidase activity>
0 nmol

$$$$
>  <MOLECULE>
C[C@H](N)C(=O)N[C@@H](C)C(=O)N[C@@H](Cc1ccccc1)C(=O)Nc1ccc2ccccc2c1 [Ala-Ala-Phe] (H-Ala-Ala-Phe-βNA)

>  <Aminopeptidase activity>
1 nmol

$$$$
>  <MOLECULE>
CSCCC(N)C(=O)Nc1ccc2ccccc2c1 (racemic)

>  <Aminopeptidase activity>
18 nmol

$$$$
>  <MOLECULE>
Cl.N=C(N)NCCC[C@H](NC(=O)CNC(=O)CNC(=O)OCc1ccccc1)C(=O)Nc1ccc2ccccc2c1 [N-CBz-Gly-Gly-Arg]

>  <Aminopeptidase activity>
0 nmol

$$$$
>  <MOLECULE>
NC(=O)[C@@H](N)CCC(=O)O [α-Glu, α -glutamine]

>  <Aminopeptidase activity>
0 nmol

$$$$
